Below are Kd values recorded for BaCYP106A6 (Bacillus sp. (in: firmicutes)).
Reply with just the number (in µM).

1) C[C@]12CCC(=O)C=C1CC[C@@H]1[C@@H]2CC[C@]2(C)C(=O)CC[C@@H]12; 36.6

Kindly consider the entry below.
Given the entry "CC(=O)[C@H]1CC[C@H]2[C@@H]3CCC4=CC(=O)CC[C@]4(C)[C@H]3CC[C@]12C" , report its measured Kd. 38.4
